Data credit: patent US12350269B2

assay: Phase 1 study: pharmacokinetics following oral dosing; type: in vivo, human; settings: 65 mg/day; Table 5, n=43; read-out: SS Cmax
outcome measure: Cmax (nM)
Just the number please, in nM, no unit attached.

// Cmax lookup, compound = `CCS(=O)(=O)N1CCN(c2ccc(Nc3ncc(C(N)=O)c(NC4CC4)n3)cc2)CC1` , result: 1670

* * *

molecular target: MARK1 (Homo sapiens, UniProt Q9P0L2); construct: purchased Millipore; assay: Purified kinase assay (Millipore); type: biochemical; settings: 300 nM ATP
Sequence (Q9P0L2 whole entry): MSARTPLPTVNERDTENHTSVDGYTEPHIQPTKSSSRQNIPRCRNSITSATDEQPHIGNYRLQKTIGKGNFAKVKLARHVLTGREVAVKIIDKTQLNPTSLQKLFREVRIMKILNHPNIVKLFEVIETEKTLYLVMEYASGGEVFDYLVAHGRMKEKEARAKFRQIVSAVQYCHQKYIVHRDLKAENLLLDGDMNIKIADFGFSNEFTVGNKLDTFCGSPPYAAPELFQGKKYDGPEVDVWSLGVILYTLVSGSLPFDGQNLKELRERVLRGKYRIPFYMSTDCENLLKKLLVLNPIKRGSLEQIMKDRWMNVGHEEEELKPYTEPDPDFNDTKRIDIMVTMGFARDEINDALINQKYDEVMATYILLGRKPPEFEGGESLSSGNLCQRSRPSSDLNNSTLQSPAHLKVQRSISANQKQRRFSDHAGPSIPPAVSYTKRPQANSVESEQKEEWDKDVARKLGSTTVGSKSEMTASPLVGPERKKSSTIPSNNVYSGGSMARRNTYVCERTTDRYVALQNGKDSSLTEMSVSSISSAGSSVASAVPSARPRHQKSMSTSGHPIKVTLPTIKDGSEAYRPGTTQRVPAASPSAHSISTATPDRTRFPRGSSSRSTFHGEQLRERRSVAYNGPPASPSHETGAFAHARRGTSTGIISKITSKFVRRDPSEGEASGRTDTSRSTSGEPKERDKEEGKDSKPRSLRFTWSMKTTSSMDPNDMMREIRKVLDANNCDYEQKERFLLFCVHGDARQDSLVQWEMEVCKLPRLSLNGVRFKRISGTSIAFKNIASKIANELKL
outcome measure: pIC50
Note on units: pIC50 is unitless, being -log10 of a concentration expressed in mol/L.

The compound `CCS(=O)(=O)N1CCN(c2ccc(Nc3ncc(C(N)=O)c(NC4CC4)n3)cc2)CC1` , tested on MARK1 (Homo sapiens, UniProt Q9P0L2), showed pIC50 of 8.00
